Assay: MRTinfinity in male ICR mouse at 5 mg/kg, iv measured after 24 hrs by LC-MS/MS analysis
Assay type: ADME, organism-based
Settings: in vivo
Observation Type: MRT inf (h)
The figure you give is taken to be in h; do not add the unit.

Entry `O=c1ccn([C@@H]2S[C@H](CO)[C@@H](O)[C@H]2O)c(=O)[nH]1` ; MRT inf = 11.4

----------
Assay: MRTlast in male ICR mouse at 10 mg/kg, po measured after 24 hrs by LC-MS/MS analysis
Format: ADME, organism-based
Conditions: in vivo
Observation Type: MRT last at 24 h

Measured MRT last at 24 h, `O=c1ccn([C@@H]2S[C@H](CO)[C@@H](O)[C@H]2O)c(=O)[nH]1` : 6.84 h
